Consider the following compounds and their measured ED15 readings.
# Test system: Mongrel dogs
# Procedure Details: Coronary vasodilating activity and hypotensive activity in anesthetized dogs
# Assay type: in vivo, dog
# Condition Label: Canis lupus familiaris, iv, read-out: Mean systemic blood pressure lowering activity MBP-DD15
Reply with just the number (in mg/kg).

Some solved entries appear below for comparison.
Compound | ED15 / mg/kg
CCOP(=O)(Cc1ccc(-c2nc3cc(F)ccc3s2)cc1)N1CCOC1=O (centres unmarked) | 0.0748
CCOP(=O)(Cc1ccc(-c2nc3ccccc3s2)cc1)OCC [Compound A, reference compound] | 0.158
CCOP(=O)(Cc1ccc(-c2nc3ccccc3s2)cc1)N1CCCCC1=O (centres unmarked) | 0.0582
CCOP(=O)(Cc1ccc(-c2nc3ccccc3s2)cc1)N1CCCCCC1=O (centres unmarked) | 0.054
CCOP(=O)(Cc1ccc(-c2nc3cc(F)ccc3s2)cc1)N1CCCC1=O (centres unmarked) | 0.0901
CCOP(=O)(Cc1ccc(-c2nc3ccccc3s2)cc1)N1CCCC1=O (centres unmarked) | 0.0387
CCOP(=O)(Cc1ccc(-c2nc3cc(F)ccc3s2)cc1)N1CCCCCC1=O (centres unmarked) | 0.0712

query: Tell me the measured ED15 of CCOP(=O)(Cc1ccc(-c2nc3cc(F)ccc3s2)cc1)N1CCCCC1=O (centres unmarked) , please.
result: 0.0629

----------
# Kb per record follows
# Target Of Assay: taenia preparation isolated from caecum (Cavia porcellus)
# Construct: The taenia preparation in a length of about 2 cm was isolated from caecum; from tissue; host or cells: guinea pig taenia caeci (isolated smooth muscle strip)
# Sequence (O35505 whole entry): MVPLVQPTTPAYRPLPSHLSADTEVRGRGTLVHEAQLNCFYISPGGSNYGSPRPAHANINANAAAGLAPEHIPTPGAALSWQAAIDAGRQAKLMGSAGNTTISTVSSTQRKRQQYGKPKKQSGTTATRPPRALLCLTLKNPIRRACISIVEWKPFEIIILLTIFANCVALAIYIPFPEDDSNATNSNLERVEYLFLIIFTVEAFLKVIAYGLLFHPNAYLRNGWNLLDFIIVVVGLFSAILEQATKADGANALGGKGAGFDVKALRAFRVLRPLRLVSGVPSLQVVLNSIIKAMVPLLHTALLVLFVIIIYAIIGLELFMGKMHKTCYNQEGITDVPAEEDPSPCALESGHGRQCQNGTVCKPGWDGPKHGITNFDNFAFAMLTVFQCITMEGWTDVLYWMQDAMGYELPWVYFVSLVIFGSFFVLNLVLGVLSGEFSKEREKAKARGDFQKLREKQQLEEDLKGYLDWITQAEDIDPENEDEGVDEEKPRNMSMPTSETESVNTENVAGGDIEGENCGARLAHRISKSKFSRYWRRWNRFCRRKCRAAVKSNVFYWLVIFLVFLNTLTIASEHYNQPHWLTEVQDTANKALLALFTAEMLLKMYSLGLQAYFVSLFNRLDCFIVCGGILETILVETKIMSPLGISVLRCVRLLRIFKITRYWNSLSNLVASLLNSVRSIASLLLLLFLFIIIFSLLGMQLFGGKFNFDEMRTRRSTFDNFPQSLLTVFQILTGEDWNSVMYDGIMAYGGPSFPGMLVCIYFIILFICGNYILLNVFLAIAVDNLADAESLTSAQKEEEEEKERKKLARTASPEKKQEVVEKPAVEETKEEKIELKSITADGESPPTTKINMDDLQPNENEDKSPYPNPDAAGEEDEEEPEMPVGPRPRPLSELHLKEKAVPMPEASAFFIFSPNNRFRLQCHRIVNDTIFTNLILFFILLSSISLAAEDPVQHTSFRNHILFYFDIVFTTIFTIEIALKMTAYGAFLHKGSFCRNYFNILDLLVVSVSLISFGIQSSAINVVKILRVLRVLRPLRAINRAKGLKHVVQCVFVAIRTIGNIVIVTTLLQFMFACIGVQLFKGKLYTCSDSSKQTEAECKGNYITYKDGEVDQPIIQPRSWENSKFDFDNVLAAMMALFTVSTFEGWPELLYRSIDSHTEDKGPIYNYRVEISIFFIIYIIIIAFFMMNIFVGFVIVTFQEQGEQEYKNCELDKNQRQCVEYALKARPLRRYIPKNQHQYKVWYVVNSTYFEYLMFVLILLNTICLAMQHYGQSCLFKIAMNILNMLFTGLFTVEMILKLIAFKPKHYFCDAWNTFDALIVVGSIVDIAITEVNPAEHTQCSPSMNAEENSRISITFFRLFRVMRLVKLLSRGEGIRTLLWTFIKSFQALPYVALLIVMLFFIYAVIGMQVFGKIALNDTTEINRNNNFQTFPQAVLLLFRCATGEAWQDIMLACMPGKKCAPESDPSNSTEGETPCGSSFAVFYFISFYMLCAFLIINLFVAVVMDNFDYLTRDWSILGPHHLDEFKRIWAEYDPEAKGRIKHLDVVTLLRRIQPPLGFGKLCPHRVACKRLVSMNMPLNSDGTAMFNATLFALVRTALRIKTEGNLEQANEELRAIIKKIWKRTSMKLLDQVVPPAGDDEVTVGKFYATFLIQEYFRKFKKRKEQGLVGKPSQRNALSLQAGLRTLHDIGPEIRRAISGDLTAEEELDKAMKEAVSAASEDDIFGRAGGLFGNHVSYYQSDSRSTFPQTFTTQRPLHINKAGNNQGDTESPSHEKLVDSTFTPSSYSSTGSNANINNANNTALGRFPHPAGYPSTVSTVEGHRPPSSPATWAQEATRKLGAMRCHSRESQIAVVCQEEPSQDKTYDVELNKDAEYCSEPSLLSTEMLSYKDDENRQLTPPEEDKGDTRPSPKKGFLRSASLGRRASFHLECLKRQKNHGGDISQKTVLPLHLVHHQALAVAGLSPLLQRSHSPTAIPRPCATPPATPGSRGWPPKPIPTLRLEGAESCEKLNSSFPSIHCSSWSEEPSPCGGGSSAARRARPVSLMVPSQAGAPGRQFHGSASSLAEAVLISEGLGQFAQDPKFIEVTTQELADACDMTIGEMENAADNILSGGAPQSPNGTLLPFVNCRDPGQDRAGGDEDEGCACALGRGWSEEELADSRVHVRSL
# Procedure Details: Calcium antagonistic activity (isolated taenia preparation from caecum, Ca2+ concentration-response in K+-rich solution)
# Format: cell-based
# Condition Label: guinea pig taenia caeci; Ca2+-free, K+-rich Ringer-Lock solution, 30±1° C.; CaCl2 cumulatively added; read-out: Calcium antagonistic activity (pA2 values, mean ± standard error) (converted)
Give the quantity in nM, number only.

Molecule | Units Label | Kb
CCOP(=O)(Cc1ccc(-c2nc3ccccc3s2)cc1)N1CCCCC1=O (centres unmarked) [Compound 101] | nM | 35.5

query: Requested field: Kb. Item: CCOP(=O)(Cc1ccc(-c2nc3cc(F)ccc3s2)cc1)N1CCCC1=O (centres unmarked) [Compound 103]
result: 18.6

query: Need Kb of CCOP(=O)(Cc1ccc(-c2nc3ccccc3s2)cc1)OCC [Compound A, reference compound] , thanks.
result: 61.7

query: Form field: reported Kb of CCOP(=O)(Cc1ccc(-c2nc3cc(F)ccc3s2)cc1)N1CCCCC1=O (centres unmarked) [Compound 104]
result: 20.9

query: Item CCOP(=O)(Cc1ccc(-c2nc3ccccc3s2)cc1)N1CCCC1=O (centres unmarked) [Compound 100] has what recorded Kb?
result: 29.5

----------
# Target Of Assay: taenia preparation isolated from caecum (Cavia porcellus)
# Construct: The taenia preparation in a length of about 2 cm was isolated from caecum; from tissue; host or cells: guinea pig taenia caeci (isolated smooth muscle strip)
# Procedure Details: Calcium antagonistic activity (isolated taenia preparation from caecum, Ca2+ concentration-response in K+-rich solution)
# Type: cell-based
# Condition Label: guinea pig taenia caeci; Ca2+-free, K+-rich Ringer-Lock solution, 30±1° C.; CaCl2 cumulatively added; read-out: Calcium antagonistic activity (pA2 values, mean ± standard error) (converted)
# Method: Male guinea pigs, weighing 405-500 g, were stunned and bled. The taenia preparation in a length of about 2 cm was isolated from caecum and suspended in an organ bath filled with Ca^2+ -free Ringer-Lock solution (composition, mM: NaCl 154, KCl 5.6, NaHCO3 2.3, glucose 5.5). The bathing solution was maintained at 30±1° C. and bubbled with air. The contractile response was recorded using an isotonic transducer (TD-112S made by Nihon Kohden Co., Ltd.) under a load of 0.5 g. […]
The entries below come with measured Kb values attached.
Number in nM, nothing else.

Would you please look over these solved cases?
Compound | Units Label | Data Value
CCOP(=O)(Cc1ccc(-c2nc3ccccc3s2)cc1)N1CCCCCC1=O (stereo not drawn) | nM | 34.7
CCOP(=O)(Cc1ccc(-c2nc3cc(F)ccc3s2)cc1)N1CCOC1=O (stereo not drawn) | nM | 20.4

query: Identify the measured Kb of CCOP(=O)(Cc1ccc(-c2nc3cc(F)ccc3s2)cc1)N1CCCCCC1=O (stereo not drawn) for taenia preparation isolated from caecum (Cavia porcellus).
result: 18.6

Reference for the values: patent US4607031A
